B1: TPR t1 (parent)
chain: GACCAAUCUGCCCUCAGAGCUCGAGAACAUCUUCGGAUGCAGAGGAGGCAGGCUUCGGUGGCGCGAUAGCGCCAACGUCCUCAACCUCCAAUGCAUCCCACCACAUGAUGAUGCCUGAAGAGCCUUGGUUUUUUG

Variants of: B1
Test: polymerase ribozyme fitness, log enrichment relative to wild type (log ratio); higher = more active; in vitro selection for triplet polymerase activity
Use Condition met when the recorded polymerase ribozyme fitness (log ratio) is no lower than -5; use Condition not met when it is lower.

var	labelValue
A50U G61A	Condition met
U7A C73G U116G	Condition met

Query block: Determine whether this variant has polymerase ribozyme fitness (log ratio) no lower than -5: A6G C62A
Result block: Condition met

Query block: Determine whether this variant has polymerase ribozyme fitness (log ratio) no lower than -5: G61A U112A
Result block: Condition met

Query block: Determine whether this variant has polymerase ribozyme fitness (log ratio) no lower than -5: U96A U131G
Result block: Condition met

Query block: Determine whether this variant has polymerase ribozyme fitness (log ratio) no lower than -5: C11G C64U
Result block: Condition met

Query block: Determine whether this variant has polymerase ribozyme fitness (log ratio) no lower than -5: C8A A29U G63A C88U A91U C123U
Result block: Condition met

Query block: Determine whether this variant has polymerase ribozyme fitness (log ratio) no lower than -5: C11A G71U
Result block: Condition met

Query block: Determine whether this variant has polymerase ribozyme fitness (log ratio) no lower than -5: A74G G113A
Result block: Condition met

Query block: Determine whether this variant has polymerase ribozyme fitness (log ratio) no lower than -5: C11U C34U G71A A121C U129C
Result block: Condition not met

Query block: Determine whether this variant has polymerase ribozyme fitness (log ratio) no lower than -5: U55G G63A U81C
Result block: Condition met

Query block: Determine whether this variant has polymerase ribozyme fitness (log ratio) no lower than -5: A24G G63C G71U C123G
Result block: Condition not met

Query block: Determine whether this variant has polymerase ribozyme fitness (log ratio) no lower than -5: G69U U78A A83C C102G
Result block: Condition met

Query block: Determine whether this variant has polymerase ribozyme fitness (log ratio) no lower than -5: A41G A43G
Result block: Condition met

Query block: Determine whether this variant has polymerase ribozyme fitness (log ratio) no lower than -5: U32C A74G G128C
Result block: Condition met

Query block: Determine whether this variant has polymerase ribozyme fitness (log ratio) no lower than -5: C13G G117A
Result block: Condition met

Sourced from the RNAGym collection of RNA variant scans (doi:10.1073/pnas.2313332121)
